Source of measurements: patent US20040018558A1

# system: T1, dark-adapted rhodopsin (bovine rod outer segment membranes) (bovine, UniProt P02699 1-348, retinylidene chromophore bound to Lys-296)
# T1 construct: whole, on cells; also called dark-adapted bovine rhodopsin
# T1 sequence (P02699 whole entry): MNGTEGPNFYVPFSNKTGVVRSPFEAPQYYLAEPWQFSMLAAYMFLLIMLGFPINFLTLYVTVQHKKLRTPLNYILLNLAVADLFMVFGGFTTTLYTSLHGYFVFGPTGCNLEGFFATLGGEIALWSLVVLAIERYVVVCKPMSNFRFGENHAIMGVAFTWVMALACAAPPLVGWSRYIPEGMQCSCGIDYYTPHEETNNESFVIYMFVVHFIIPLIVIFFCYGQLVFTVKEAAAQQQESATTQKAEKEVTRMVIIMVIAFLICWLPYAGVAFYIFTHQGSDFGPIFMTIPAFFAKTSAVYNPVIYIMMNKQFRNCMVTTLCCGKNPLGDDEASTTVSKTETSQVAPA
# measurement_notes: LacI display panning, dark-adapted ROS membranes
Where no end group is shown, it is not given here.

# binder, binding result
rows = [
    ("IRGTLKGWGLF (peptide, not shown: small tags and cut ends, also: fused to LacI carrier via linker, letters not given here) [Clone No. 41 (Table X) IRGTLKGWGLF]", "binds"),
    ("IRENLKDLGLV (peptide, not shown: small tags and cut ends, also: fused to LacI carrier via linker, letters not given here) [Clone No. 21 (Table X) IRENLKDLGLV]", "binds"),
    ("IREKWKDLALF (peptide, not shown: small tags and cut ends, also: fused to LacI carrier via linker, letters not given here) [Clone No. 2 (Table X) IREKWKDLALF]", "binds"),
]
